TEST_DESCRIPTION: ATG_PXRE_CIS: Attagene CIS-FACTORIAL HepG2 Assay for human Pregnane X Receptor Element (PXRE) (AID 2282957)
RUN_CONDITIONS: HepG2 Attagene CIS-FACTORIAL PXRE reporter, mRNA; actives raise or lower the signal
Calls of active or inactive are those of the source. How the source made its calls: active means hit-call score of the fitted dose curve at least 0.9, where 1 is the maximum; inactive means score below 0.9.
Your reply should match one of these outcome classes. true (active), false (inactive)

-- ask # lookup: test call for COC(=O)Nc1nc2ccccc2[nH]1
-- reply false

-- ask Just curious, what result did Clc1ccc(Cl)c(Cl)c1 get here?
-- reply true

-- ask Outcome? OCCCl
-- reply false

-- ask I would be grateful if you could indicate the recorded call for O=[N+]([O-])C(Br)(CO)CO .
-- reply true

-- ask // param item: OCCCBr ; yields the recorded call
-- reply false

-- ask I would be grateful if you could indicate the recorded call for Nc1ccc(Oc2ccc(N)cc2)cc1 .
-- reply false

-- ask Any idea what this test logged for Nc1ccc([N+](=O)[O-])cc1 ?
-- reply false

-- ask Fill in: this test's call for CO[C@@H]1[C@H](OC(=O)NC(=O)CCl)CC[C@]2(CO2)[C@H]1[C@@]1(C)O[C@@H]1CC=C(C)C is ___
-- reply true

-- ask Which result was noted for this molecule in the test: COc1cc(C=O)cc2c1[C@H](COC(N)=O)[C@]1(OC(C)=O)ON2C[C@H]2[C@@H]1N2C(C)=O
-- reply true

-- ask Hello, I am checking results. What call was entered for CCN(CC)CCO ?
-- reply false

-- ask Please indicate how the test categorized COP(=S)(OC)SCN1C(=O)c2ccccc2C1=O .
-- reply true

-- ask Hello, I am checking results. What call was entered for ClC1=C(Cl)[C@]2(Cl)[C@H]3[C@H]([C@@H]4C=C[C@H]3C4)[C@@]1(Cl)C2(Cl)Cl ?
-- reply true

-- ask Per the assay record, what outcome was assigned to CCC(C)c1ccc(O)cc1 (centres undefined) ?
-- reply true

-- ask How did this test come out for c1ccc2c(c1)oc1ccccc12 ?
-- reply false

---

TARGET_ENTITY: Cellular tumor antigen p53 (Homo sapiens)
TEST_DESCRIPTION: ATG_p53_CIS: Attagene CIS-FACTORIAL HepG2 Assay for human p53 Transcription Factor (AID 2282994)
RUN_CONDITIONS: HepG2 p53 cis-element reporter, Attagene mRNA; actives raise or lower the signal
Activity calls are given as the source filed them. Rule for the calls: active = hit-call score of the fitted dose curve at least 0.9, where 1 is the maximum; inactive = score below 0.9.
One label from this list, please: active, inactive

-- ask # outcome recorded in this test, key = N#CC(Br)(Br)C(N)=O
-- reply inactive

-- ask Write down the call the test reported for this compound. Item: C1=Cc2cccc3cccc1c23
-- reply inactive

-- ask GET /call?item= C[N+](C)(C)CC1CO1 (stereo unspecified) returns the recorded outcome of this test.
-- reply inactive

-- ask Test call, this compound: OCCCBr
-- reply inactive

-- ask # lookup: test call for c1ccc(C2CO2)cc1 (stereo unspecified)
-- reply inactive

-- ask // param item: CCCCCCCCCCCCCN1CC(C)OC(C)C1 (stereo unspecified) ; yields the recorded call
-- reply inactive

-- ask Look up the recorded call for CN(C)C(=O)Nc1ccc(Cl)cc1 in this test.
-- reply inactive

-- ask GET /call?item= Cc1ccc(N)cc1 returns the recorded outcome of this test.
-- reply inactive

-- ask Short answer needed: outcome of this test for CCC[CH2][Sn]([Cl])([CH2]CCC)[CH2]CCC ?
-- reply active

-- ask Per the records of this test, what outcome belongs to Cc1ccc(N=C=O)cc1N=C=O ?
-- reply inactive

-- ask Give the logged outcome of this assay for the following compound: CCN(CC)CCO
-- reply inactive

-- ask What is the recorded call for this compound in the test? [As]#[In]
-- reply inactive

-- ask For O=[N+]([O-])c1ccc(Oc2ccc(Cl)cc2Cl)cc1 , what call appears in the results of this test?
-- reply inactive

-- ask Please state the recorded outcome for this compound: c1ccc(NNc2ccccc2)cc1
-- reply inactive

-- ask Just curious, what result did CCCCCCCCn1sccc1=O get here?
-- reply active

-- ask Dear all, I need the recorded test outcome for Nc1cc(Cl)cc(C(=O)O)c1Cl , thank you.
-- reply inactive

-- ask Tell me the assay call for CC(C)(C)C(O)(CCc1ccc(Cl)cc1)Cn1cncn1 (stereo unspecified) please.
-- reply inactive

-- ask Could you check what this test reported for CO[C@@H]1[C@H](OC(=O)NC(=O)CCl)CC[C@]2(CO2)[C@H]1[C@@]1(C)O[C@@H]1CC=C(C)C ?
-- reply inactive

-- ask Per the assay record, what outcome was assigned to Cc1cc(N=Nc2ccccc2C)ccc1N ?
-- reply inactive

-- ask Which outcome was assigned to COc1cc(C=O)cc2c1[C@H](COC(N)=O)[C@]1(OC(C)=O)ON2C[C@H]2[C@@H]1N2C(C)=O in this test?
-- reply active

-- ask Per the assay record, what outcome was assigned to O=P(OCCCl)(OCCCl)OCCCl ?
-- reply inactive

Origin of values: PubChem BioAssay (EPA / NIEHS)
